- Tested on: Acinetobacter baumannii strains
- Method notes: Antibiotic susceptibility test (CLSI disk diffusion test method, read per CLSI 2016); also: key: ‘S’ means susceptible; ‘I’ means intermediate; ‘R’ means resistant
- Format: cell-based
- Measurement context: host strain YMC14/04/R1078
Endpoint label: antibiotic susceptibility class

- CCN1CCN(C(=O)N[C@@H](C(=O)N[C@@H]2C(=O)N3[C@@H]2SC(C)(C)[C@@H]3C(=O)O)c2ccccc2)C(=O)C1=O [Piperacillin, piperacillin]: R
- CO/N=C(\C(=O)N[C@@H]1C(=O)N2C(C(=O)O)=C(COC(C)=O)CS[C@H]12)c1csc(N)n1 [Cefotaxime, cefotaxime]: R
- CN(C)c1ccc(O)c2c1C[C@H]1C[C@H]3[C@H](N(C)C)C(O)=C(C(N)=O)C(=O)[C@@]3(O)C(O)=C1C2=O [Minocycline, minocycline]: S
